Where these numbers come from: ChEMBL document CHEMBL2010796

- procedureDetails: Kinetic solubility in water
- Assay type: physicochemical
- assayConditions: read-out: Kinetic_solubility
recordedEndpoint: solubility kinetic

{"substanceSmiles": "Cc1nc(O[C@H]2C(C)(C)[C@H](NC(=O)c3cnc4ccccn34)C2(C)C)ccc1C#N", "recordedEndpoint": "solubility kinetic", "endpointResult": "< 0.4 µM"}

###

- procedureDetails: Half life in rat
- Format: ADME, organism-based
- assayConditions: in vivo

{"substanceSmiles": "Cc1nc(O[C@H]2C(C)(C)[C@H](NC(=O)c3cnc4ncccn34)C2(C)C)ccc1C#N", "half-life / h": 3.6}

###

- procedureDetails: Oral bioavailability in rat
- Format: ADME, organism-based
- assayConditions: in vivo
recordedEndpoint: bioavailability (%)

{"substanceSmiles": "Cc1nc(O[C@H]2C(C)(C)[C@H](NC(=O)c3cnc4ncccn34)C2(C)C)ccc1C#N", "endpointResult": 31}
